Biological target: human GCG receptor (human, UniProt P47871 26-477)
Sequence (P47871 26-477): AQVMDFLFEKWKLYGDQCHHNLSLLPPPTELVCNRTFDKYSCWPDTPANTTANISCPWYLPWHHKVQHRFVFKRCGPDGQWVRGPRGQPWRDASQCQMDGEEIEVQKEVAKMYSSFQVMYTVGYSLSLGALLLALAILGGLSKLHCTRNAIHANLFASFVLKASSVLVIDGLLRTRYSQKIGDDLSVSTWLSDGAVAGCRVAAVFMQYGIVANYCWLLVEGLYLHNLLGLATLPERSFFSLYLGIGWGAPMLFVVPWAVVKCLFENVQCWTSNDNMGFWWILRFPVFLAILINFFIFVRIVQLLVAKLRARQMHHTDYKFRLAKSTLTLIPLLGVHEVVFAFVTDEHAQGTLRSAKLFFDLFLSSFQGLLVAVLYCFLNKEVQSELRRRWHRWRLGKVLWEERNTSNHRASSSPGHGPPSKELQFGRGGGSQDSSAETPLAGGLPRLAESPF
Test: cell-based or functional assay
Bridges are numbered along the chain shown (N, C = ends). Where no end group is shown, it is not given here. [ ]: non-standard residue; d: D form. Aib = CC(C)(N)C(=O)O
measure: In vitro activity compared with native peptide (%) vs. Glucagon
Give bare numbers, in %.

Here are 3 binders together with their reported answers.
INSERT INTO assay_data (binder, readoutunits, reportedmeasurement) VALUES
  ('H[Aib]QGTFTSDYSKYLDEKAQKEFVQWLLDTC (bridge 16-20) [Triple agonist of SEQ ID NO: 30]', '%', 0.7),
  ('Y[Aib]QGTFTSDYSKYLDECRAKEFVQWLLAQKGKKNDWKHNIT (bridge 16-20) [Triple agonist of SEQ ID NO: 23]', '%', 9.3),
  ('H[Aib]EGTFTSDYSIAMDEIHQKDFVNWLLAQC (bridge 16-20) [Triple agonist of SEQ ID NO: 53]', '%', 8.4);

List In vitro activity compared with native peptide (%) vs. Glucagon for every entry below, keeping the order given.
1. H[Aib]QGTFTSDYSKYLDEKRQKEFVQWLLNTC (bridge 16-20) [Triple agonist of SEQ ID NO: 51]
2. Y[Aib]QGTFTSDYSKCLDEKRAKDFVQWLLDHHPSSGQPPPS (bridge 16-20) [Triple agonist of SEQ ID NO: 70]

1: 2; 2: 71.3
